Recorded EC50 values for a group of molecules are listed next.
target: MOR (Homo sapiens, UniProt P35372); experiment: cell-based; assay type: cell-based; set-up: expressed in transfected cells; host or cells: CHO cells stably expressing MOR; details: CHO cells expressing MOR; read-out: EC50 (inhibition of cAMP accumulation)
Sequence (P35372 whole entry): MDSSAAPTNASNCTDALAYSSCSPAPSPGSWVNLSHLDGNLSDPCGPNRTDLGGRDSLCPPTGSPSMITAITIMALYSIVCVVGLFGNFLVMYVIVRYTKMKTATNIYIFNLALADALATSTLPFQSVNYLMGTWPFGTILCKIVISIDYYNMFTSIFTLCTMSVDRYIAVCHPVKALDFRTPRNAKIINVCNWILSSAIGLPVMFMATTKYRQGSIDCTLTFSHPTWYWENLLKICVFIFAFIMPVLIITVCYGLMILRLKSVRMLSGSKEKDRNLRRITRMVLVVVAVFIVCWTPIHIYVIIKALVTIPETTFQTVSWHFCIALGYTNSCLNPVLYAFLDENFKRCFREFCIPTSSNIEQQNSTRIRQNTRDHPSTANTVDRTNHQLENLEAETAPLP
Write down the numeric answer in nM and omit the unit.

QUERY_SMILES: COC(=O)[C@@H]1C=C(OC(=O)c2cccc(CO)c2)C(=O)[C@H]2[C@@]1(C)CC[C@H]1C(=O)O[C@H](c3ccoc3)C[C@]21C
DISPLAY_UNIT: nM
EC50: 2.42

QUERY_SMILES: COC(=O)[C@@H]1C=C(OC(=O)c2ccc(CO)cc2)C(=O)[C@H]2[C@@]1(C)CC[C@H]1C(=O)O[C@H](c3ccoc3)C[C@]21C
DISPLAY_UNIT: nM
EC50: 0.03

Ask: Give the reported EC50 for COC(=O)[C@@H]1C=C(OC(=O)c2ccc3ccoc3c2)C(=O)[C@H]2[C@@]1(C)CC[C@H]1C(=O)O[C@H](c3ccoc3)C[C@]21C (system: MOR (Homo sapiens, UniProt P35372)).
Reply: 1.5

The origin of these recorded values is patent US11034679B2.
